Entry source: ChEMBL document CHEMBL5042497

- target_system: Cholinesterase (Equus caballus, UniProt P81908)
- Sequence (P81908 whole entry): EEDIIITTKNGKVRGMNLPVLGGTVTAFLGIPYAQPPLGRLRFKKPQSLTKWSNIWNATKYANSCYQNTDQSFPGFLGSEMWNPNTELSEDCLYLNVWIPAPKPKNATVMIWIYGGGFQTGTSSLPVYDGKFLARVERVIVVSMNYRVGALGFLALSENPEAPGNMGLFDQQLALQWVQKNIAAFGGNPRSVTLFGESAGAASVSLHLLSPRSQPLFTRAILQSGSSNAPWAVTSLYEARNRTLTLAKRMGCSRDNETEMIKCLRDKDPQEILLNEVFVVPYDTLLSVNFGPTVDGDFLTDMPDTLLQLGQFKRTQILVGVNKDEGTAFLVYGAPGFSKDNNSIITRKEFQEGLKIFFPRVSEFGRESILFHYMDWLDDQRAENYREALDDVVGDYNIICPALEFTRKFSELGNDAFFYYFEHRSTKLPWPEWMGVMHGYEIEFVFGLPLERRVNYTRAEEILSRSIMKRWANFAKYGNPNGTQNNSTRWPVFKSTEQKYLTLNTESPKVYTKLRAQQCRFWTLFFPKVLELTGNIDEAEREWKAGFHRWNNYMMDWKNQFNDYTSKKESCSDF
- measurement_description: Inhibition of equine serum BChE using butyrylthiocholine iodide as substrate preincubated for 10 mins followed by substrate addition and measured after 15 mins by Ellman's method
result_type: IC50 (µM)
Answers are plain numbers, in µM.

Quick batch: IC50 for everything below.
1. O=C(NCCc1c[nH]c2ccccc12)c1ccccc1OC(=O)N1CCOCC1
2. CON(C)C(=O)Oc1ccccc1C(=O)NCCc1c[nH]c2ccccc12
3. O=C(NCCc1c[nH]c2ccccc12)c1ccccc1OC(=O)N1CCC1
4. CCCN(CCC)C(=O)Oc1ccccc1C(=O)NCCc1c[nH]c2ccccc12
5. O=C(NCCc1c[nH]c2ccccc12)c1ccccc1OC(=O)N(Cc1ccccc1)Cc1ccccc1

Response:
1: 10; 2: 1.84; 3: 17; 4: 35.8; 5: 15.4
